System: S. cerevisiae RJY1942 (palmitoylation sensitive)
Assay: Growth inhibition assay, palmitoylation-sensitive strain
Assay type: cell-based
Conditions: Saccharomyces cerevisiae, read-out: EC50 (50% reduction in growth)
resultType: EC50 (µM)
Answers are plain numbers, in µM.

Q) Suppose we examine the compound CCCCCCCCCCCCCCC(Br)C(=O)O (stereo not shown) [Compound 2-BP, 2-bromopalmitic acid, reference compound] ; what EC50 value has been reported?
A) 12.5

---

Target: Erf2 (Saccharomyces cerevisiae)
Construct: made in house; host or cells: Saccharomyces cerevisiae strain RJY1842 (erf4Δ/erf4Δ), galactose-induced pESC(-Leu) vector, Ni-NTA purified
Sequence (Q06551 whole entry): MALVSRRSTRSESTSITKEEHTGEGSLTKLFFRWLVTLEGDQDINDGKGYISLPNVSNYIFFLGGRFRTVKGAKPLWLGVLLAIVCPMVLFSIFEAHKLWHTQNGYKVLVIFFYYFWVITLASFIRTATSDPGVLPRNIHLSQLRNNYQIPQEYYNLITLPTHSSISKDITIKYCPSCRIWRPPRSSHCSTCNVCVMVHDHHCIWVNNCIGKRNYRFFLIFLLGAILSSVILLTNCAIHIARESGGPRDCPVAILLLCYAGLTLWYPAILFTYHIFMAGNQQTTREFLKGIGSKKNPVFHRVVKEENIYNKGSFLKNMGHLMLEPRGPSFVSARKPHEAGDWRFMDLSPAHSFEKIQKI
Assay: Fluorescence-based coupled PAT assay of the rate of Erf2 autopalmitoylation
Type: biochemical, S. cerevisiae
resultType: Ki (µM)
Give bare numbers, in µM.

Q) Find the recorded Ki belonging to CCCCCCCCCCCCCCC(Br)C(=O)O (stereo not shown) [Compound 2-BP, 2-bromopalmitic acid, reference compound] and report it.
A) 59
